ASSAYED TARGET: GABA-A receptor; anion channel
ASSAY OVERVIEW: Affinity to displace [3H]flunitrazepam from Benzodiazepine receptor in bovine brain membrane
VALUE KIND: IC50

>>> df
                                smiles_code   result
0  Cc1ccc(-n2cc(-c3ccccc3)c3c(=O)oc4ccccc4c32)cc1   172 nM
1  O=c1oc2ccccc2c2c1c(-c1ccccc1)cn2-c1ccc(Cl)cc1    40 nM
2    Cc1nn(-c2cccc(Br)c2)c2c1c(O)nc1ccccc12  2500 nM
3  O=c1oc2ccccc2c2c1c(-c1ccccc1)cn2-c1ccccc1    65 nM

---

ASSAYED TARGET: GABA-A receptor; anion channel
ASSAY OVERVIEW: Affinity to displace [3H]flunitrazepam from Benzodiazepine receptor in bovine brain membrane
VALUE KIND: IC50 (nM)

                                smiles_code  endpoint_unit  result_number
0  O=c1oc2ccccc2c2c1c(-c1ccccc1)cn2-c1cccc(Cl)c1             nM             10
1       CN1C(=O)CN=C(c2ccccc2)c2cc(Cl)ccc21             nM             13
2  COc1ccc(-n2cc(-c3ccccc3)c3c(=O)oc4ccccc4c32)cc1             nM             62
3    COc1cccc(-n2nc(C)c3c(O)nc4ccccc4c32)c1             nM           7500
4  COc1cccc(-n2cc(-c3ccccc3)c3c(=O)oc4ccccc4c32)c1             nM             48
5           COC(=O)c1cc2c(cn1)[nH]c1ccccc12             nM             16
6  Cc1cccc(-n2cc(-c3ccccc3)c3c(=O)oc4ccccc4c32)c1             nM             25
7  Cc1cccc(-n2nc(-c3ccccc3)c3c(=O)n(C)c4ccccc4c32)c1             nM             90
8  Cc1cc(C)cc(-n2cc(-c3ccccc3)c3c(=O)oc4ccccc4c32)c1             nM            8.6
9  Cn1c(=O)c2c(-c3ccccc3)nn(-c3cccc(Cl)c3)c2c2ccccc21             nM             70

This collection of values is drawn from ChEMBL document CHEMBL1125055.
